Tested on: biotinyl-Phe-oxazolone
MEASUREMENT DESCRIPTION: self-aminoacylation, catalytic enhancement (BFO) (fold over background); higher = more active; k-Seq, kA / k0A0; sequences stand for … in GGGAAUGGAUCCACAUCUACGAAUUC…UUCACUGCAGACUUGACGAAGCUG
Variants at the floor of the assay were thinned out.
Everything with self-aminoacylation lower than 4 is Not satisfied; everything else, including exactly 4, is Satisfied.

# bool: self-aminoacylation of AUCACCCUGGUCAUCGAGUUA [Fam2.1 aminoacylation ribozyme variant] >= 4
Satisfied

# bool: self-aminoacylation of CCACACGUCAGGCAAUCGGUC [Fam1B.1 aminoacylation ribozyme variant] >= 4
Not satisfied

# bool: self-aminoacylation of AUUCACCUAGGUUAUCCGGUG [Fam2.2 aminoacylation ribozyme variant] >= 4
Satisfied

# bool: self-aminoacylation of CCACACUUCAAGGAAUCGGUA [Fam1B.1 aminoacylation ribozyme variant] >= 4
Not satisfied

# bool: self-aminoacylation of AAGUUCGCUAAAAGUCGCAAG [Fam3.1 aminoacylation ribozyme variant] >= 4
Satisfied

# bool: self-aminoacylation of AUUCCCCUGGGCAUCGAGUGA [Fam2.1 aminoacylation ribozyme variant] >= 4
Satisfied

# bool: self-aminoacylation of GAGUUUGCUAAUAGUCGCACG [Fam3.1 aminoacylation ribozyme variant] >= 4
Not satisfied

# bool: self-aminoacylation of AUUACUCUGGUCAUCGAGUAA [Fam2.1 aminoacylation ribozyme variant] >= 4
Not satisfied

# bool: self-aminoacylation of AAGUUUGCUAAUCGUCGCAAU [Fam3.1 aminoacylation ribozyme variant] >= 4
Not satisfied

# bool: self-aminoacylation of CUUCACCUAGGUCACCGGGUG [Fam2.2 aminoacylation ribozyme variant] >= 4
Satisfied

# bool: self-aminoacylation of CUACUUCAAACACUCGGUGUG [Fam1A.1 aminoacylation ribozyme variant] >= 4
Satisfied

# bool: self-aminoacylation of CCCCACUUCAAGCAAUCGGAC [Fam1B.1 aminoacylation ribozyme variant] >= 4
Not satisfied

# bool: self-aminoacylation of CCACUAUUCAAGCAAUCGGUC [Fam1B.1 aminoacylation ribozyme variant] >= 4
Not satisfied

# bool: self-aminoacylation of AUUAUCCUGGUCAUAGAGUGA [Fam2.1 aminoacylation ribozyme variant] >= 4
Satisfied

# bool: self-aminoacylation of AUUCACCUAGGUGAUCCGGUG [Fam2.2 aminoacylation ribozyme variant] >= 4
Satisfied

# bool: self-aminoacylation of CCACCCUUCAAGCAAUCGGCC [Fam1B.1 aminoacylation ribozyme variant] >= 4
Not satisfied

# bool: self-aminoacylation of AUGUUUGCUAAUAGUCGCAAU [Fam3.1 aminoacylation ribozyme variant] >= 4
Not satisfied

# bool: self-aminoacylation of CCACGCUUCAAGCAAUCGGAC [Fam1B.1 aminoacylation ribozyme variant] >= 4
Not satisfied

# bool: self-aminoacylation of CCACACUACAAGCAUUCGGUC [Fam1B.1 aminoacylation ribozyme variant] >= 4
Not satisfied

# bool: self-aminoacylation of CAACACUUUAAGCAAUCGGUC [Fam1B.1 aminoacylation ribozyme variant] >= 4
Not satisfied

# bool: self-aminoacylation of AUUCACCUAGGACAACGGGUG [Fam2.2 aminoacylation ribozyme variant] >= 4
Satisfied

# bool: self-aminoacylation of CUACUGCAAACAAUCGUUCUG [Fam1A.1 aminoacylation ribozyme variant] >= 4
Not satisfied

# bool: self-aminoacylation of AUCUUUGCUAAUAGUCGCAAG [Fam3.1 aminoacylation ribozyme variant] >= 4
Not satisfied

# bool: self-aminoacylation of CUACUUCAAACAAUCAGUCUC [Fam1A.1 aminoacylation ribozyme variant] >= 4
Satisfied

# bool: self-aminoacylation of AAGUUUGCUAAUAGUCGCCUG [Fam3.1 aminoacylation ribozyme variant] >= 4
Satisfied

# bool: self-aminoacylation of AUUCACUUAGAUCAUCGGGUG [Fam2.2 aminoacylation ribozyme variant] >= 4
Satisfied

# bool: self-aminoacylation of CUAGUUCCAACAAUCGGUCUG [Fam1A.1 aminoacylation ribozyme variant] >= 4
Satisfied

# bool: self-aminoacylation of CUACUUCAAACAACCAGUCUG [Fam1A.1 aminoacylation ribozyme variant] >= 4
Not satisfied

# bool: self-aminoacylation of AUUCACCUAGGUUAUCGAGUG [Fam2.2 aminoacylation ribozyme variant] >= 4
Not satisfied

# bool: self-aminoacylation of UAGUUUGCUUAUAGUCGCAAG [Fam3.1 aminoacylation ribozyme variant] >= 4
Not satisfied

# bool: self-aminoacylation of AACUUUGCUAAUAGUGGCAAG [Fam3.1 aminoacylation ribozyme variant] >= 4
Not satisfied

# bool: self-aminoacylation of CUAGUUCAAACAAUCGGUCUU [Fam1A.1 aminoacylation ribozyme variant] >= 4
Satisfied

# bool: self-aminoacylation of AUUGCCCUGGUCAUCGAGUGA [Fam2.1 aminoacylation ribozyme variant] >= 4
Satisfied

# bool: self-aminoacylation of CCACACGUCAAUCAAUCGGUC [Fam1B.1 aminoacylation ribozyme variant] >= 4
Not satisfied

# bool: self-aminoacylation of AUUACCCUGUCCAUCGAGUGA [Fam2.1 aminoacylation ribozyme variant] >= 4
Satisfied
